Tested on: HL-60
measurement.notes: Effective dose required to […] the differentiation to monocytes of HL-60 cells; Weaker activity
Type: functional
recorded.conditions: Homo sapiens, read-out: ED50 (the source's name)
value.kind: EC50

> print(dat)
                              smiles.record  value
1  CCCCCCCCCCCCCCN1C[C@H](CO)NC(=O)[C@@H]1C(C)C   1 µM

* * *

system.name: Protein kinase C delta type (Homo sapiens)
Sequence (Q05655 whole entry): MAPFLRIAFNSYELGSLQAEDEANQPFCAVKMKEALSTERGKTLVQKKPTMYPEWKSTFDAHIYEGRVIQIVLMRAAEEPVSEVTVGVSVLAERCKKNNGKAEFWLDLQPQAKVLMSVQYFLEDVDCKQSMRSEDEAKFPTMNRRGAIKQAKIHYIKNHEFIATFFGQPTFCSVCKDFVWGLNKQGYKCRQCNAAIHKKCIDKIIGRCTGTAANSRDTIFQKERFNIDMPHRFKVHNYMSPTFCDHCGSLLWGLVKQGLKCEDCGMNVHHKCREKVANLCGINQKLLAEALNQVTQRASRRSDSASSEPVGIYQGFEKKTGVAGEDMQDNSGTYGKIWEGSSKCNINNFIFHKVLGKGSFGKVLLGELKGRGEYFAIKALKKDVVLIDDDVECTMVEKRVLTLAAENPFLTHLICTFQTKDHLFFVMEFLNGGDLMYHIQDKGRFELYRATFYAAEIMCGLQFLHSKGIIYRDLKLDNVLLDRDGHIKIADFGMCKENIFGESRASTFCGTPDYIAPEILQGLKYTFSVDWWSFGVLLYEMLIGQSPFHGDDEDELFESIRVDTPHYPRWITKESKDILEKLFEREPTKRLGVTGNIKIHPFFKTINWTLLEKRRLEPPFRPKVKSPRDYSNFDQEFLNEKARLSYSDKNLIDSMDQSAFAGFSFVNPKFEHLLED
measurement.notes: Displacement of [3H]PDBu from Protein kinase C delta
Ki values, listed per item
value.kind: Ki (µM)

> print(dat)
                              smiles.record  units  value
1  CCCCCCCCCCCCCCN1C[C@H](CO)NC(=O)[C@H]1C(C)C     µM     12
2  CCCCCCCCCCCCCCN1C[C@H](CO)NC(=O)[C@@H]1C(C)C     µM    2.7
3  CCCCCCCCCCCCCCN1C[C@@H](CO)NC(=O)[C@@H]1C(C)C     µM   0.29
4  CCCCCCCCCCCCCCN1C[C@@H](CO)NC(=O)[C@H]1C(C)C     µM    6.5
